target: Fyn (UniProt P06241); test: phosphorylation enrichment, bacterial display (enrichment ratio); higher = better substrate or ligand; peptides without Tyr show the background
Sequence (P06241 whole entry, looked up): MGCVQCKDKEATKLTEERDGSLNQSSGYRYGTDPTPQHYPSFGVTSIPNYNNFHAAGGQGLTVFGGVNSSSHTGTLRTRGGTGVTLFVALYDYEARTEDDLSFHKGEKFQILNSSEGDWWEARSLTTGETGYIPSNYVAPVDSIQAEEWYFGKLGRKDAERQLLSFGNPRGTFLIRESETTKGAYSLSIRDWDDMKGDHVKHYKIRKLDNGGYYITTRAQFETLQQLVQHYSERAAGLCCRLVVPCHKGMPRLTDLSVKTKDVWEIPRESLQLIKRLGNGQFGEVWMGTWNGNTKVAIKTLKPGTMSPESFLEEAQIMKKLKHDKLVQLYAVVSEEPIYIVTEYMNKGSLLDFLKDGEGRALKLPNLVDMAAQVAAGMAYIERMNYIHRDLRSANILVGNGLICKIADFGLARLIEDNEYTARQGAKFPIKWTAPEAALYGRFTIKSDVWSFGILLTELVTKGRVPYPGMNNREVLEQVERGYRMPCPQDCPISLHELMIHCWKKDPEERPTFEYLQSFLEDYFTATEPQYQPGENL
Entries annotated with measured phosphorylation enrichment

// below: answered sequences
> print(dat)
                            residues  data.value
1     YSTDCYRVGGH [NTRK2_Y707_Y706C]       0.438
2      ADTETYLLEKS [MYH7_Y266_I263T]       0.603
3         YETSHYPASPD [CTNND2_Y1217]       0.434
4  FTGDIYSSSNL [LZTR1_Y141_N143S_YF]         5.8
5          HEGKIYEYNQV [ZNF665_Y162]        3.02
6            EPYKVYRIVPE [IRF8_Y110]       0.641
7       LLLLFCVVRYC [MPZ_Y177_Y177C]        1.78
8           IDDNEYAYLKA [HNF4A_Y286]       0.564

Endpoint output: phosphorylation enrichment of KGKLIYLLGDS [NXPE1_Y350] . Value?
0.551

Which phosphorylation enrichment reading was recorded for the sequence FADIAYSYRHG [PAH_Y166_N167S] ?
0.512

Find the recorded phosphorylation enrichment belonging to KLFFHYNPKLC [INSR_Y457] and report it.
0.384

Suppose we examine the sequence VIERSYTSADG [DHCR7_Y382_C380R] ; what phosphorylation enrichment value has been reported?
0.496

Form field: reported phosphorylation enrichment of PTQLPYDHKWK [KIT_Y578_E583K]
0.433

Item under review: EKLQQYLAPGM [EPHB3_Y600_I601L] . Reported phosphorylation enrichment?
0.398

Which measured phosphorylation enrichment value corresponds to KSDVMYTDWKK [ORM1_Y175_V174M] ?
0.485

What measured phosphorylation enrichment goes with KDHPDYEFQPR [SOX9_Y172_K173E_YF] ?
0.448

---

molecular target: FGFR3 (UniProt P22607); assay: phosphorylation enrichment, bacterial display (enrichment ratio); higher = better substrate or ligand; peptides without Tyr show the background
Sequence (P22607 whole entry, looked up): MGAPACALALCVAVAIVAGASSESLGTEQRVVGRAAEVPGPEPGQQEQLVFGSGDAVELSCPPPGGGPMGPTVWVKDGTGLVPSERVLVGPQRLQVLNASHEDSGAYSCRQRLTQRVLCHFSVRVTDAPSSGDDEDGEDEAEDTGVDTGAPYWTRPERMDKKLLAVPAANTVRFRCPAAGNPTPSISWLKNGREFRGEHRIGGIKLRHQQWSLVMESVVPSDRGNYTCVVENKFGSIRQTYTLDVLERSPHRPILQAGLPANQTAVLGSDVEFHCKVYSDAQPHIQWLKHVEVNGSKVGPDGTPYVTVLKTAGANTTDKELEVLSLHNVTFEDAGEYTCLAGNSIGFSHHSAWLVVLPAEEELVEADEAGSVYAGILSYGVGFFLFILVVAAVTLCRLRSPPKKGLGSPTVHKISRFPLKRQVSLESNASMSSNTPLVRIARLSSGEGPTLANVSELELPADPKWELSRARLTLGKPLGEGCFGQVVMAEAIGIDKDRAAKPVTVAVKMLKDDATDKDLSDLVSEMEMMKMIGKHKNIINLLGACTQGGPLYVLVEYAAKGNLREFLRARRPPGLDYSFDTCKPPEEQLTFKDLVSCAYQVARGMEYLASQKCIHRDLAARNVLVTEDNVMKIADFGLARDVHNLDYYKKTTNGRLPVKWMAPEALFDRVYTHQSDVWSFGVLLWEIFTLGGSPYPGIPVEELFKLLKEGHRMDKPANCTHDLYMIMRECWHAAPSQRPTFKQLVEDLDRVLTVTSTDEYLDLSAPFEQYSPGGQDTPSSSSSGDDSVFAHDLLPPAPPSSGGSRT
Examples of sequences with documented phosphorylation enrichment follow.
Respond numerically, and do not add a unit to the figure.

Worked examples, 5 sequences total:
> print(dat)
                         residues            assay.target                    endpoint  data.value
1  VVFIKYLPEWT [PSEN1_Y240_L235V]  FGFR3 (UniProt P22607)  phosphorylation enrichment       0.773
2    RHCSGYVLIAM [EFR3A_Y73_R70C]  FGFR3 (UniProt P22607)  phosphorylation enrichment       0.669
3         DPHKIYEFVNS [IRF3_Y107]  FGFR3 (UniProt P22607)  phosphorylation enrichment        1.51
4  DCLASYLDKVR [KRT10_Y160_R156C]  FGFR3 (UniProt P22607)  phosphorylation enrichment       0.659
5         IVLRSYPASGH [NID2_Y449]  FGFR3 (UniProt P22607)  phosphorylation enrichment       0.596

Need phosphorylation enrichment, item GCRSKYVGLWG [KCNQ1_Y184]
0.506

Query: phosphorylation enrichment; subject: AHEALYLEADL [CENPF_Y1920_E1915A]
2.09

Bench note: what phosphorylation enrichment did CTTIHYNYMCI [TP53_Y234_N239I] show?
1.55

# input sequence: RTEAQYRFIYM [PTPN11_Y511_Q506R] ; wanted: its phosphorylation enrichment
1.1

Looking for the measured phosphorylation enrichment of SNMPTYSGHFS [GRIN2A_Y1224_T1229S] , can you help?
0.45

For WSFNLYDINKD [KCNIP3_Y174_A170S] , what is its reported phosphorylation enrichment?
0.819

# input sequence: RNPLRYTSILT [OR51B6_Y130_S126N] ; wanted: its phosphorylation enrichment
0.738

Report phosphorylation enrichment for DQIDTYELSGA [DNM1_Y354_G359A] please.
0.809

What value of measured phosphorylation enrichment is listed for FAFQLYDLDPD [CHP2_Y123_R127P_YF] ?
0.907

Give the measured phosphorylation enrichment of SFLFRYADDSF [RAB3C_Y50] .
0.582

State the recorded phosphorylation enrichment for this entry: SVVVPHEPPEV [TP53_Y220_Y220H]
0.696

Which phosphorylation enrichment value belongs to ERDYTYDELLN [EIF2S2_Y176_E177D] ?
0.791

# input sequence: CTNPRYLAAGS [RABL3_Y185] ; wanted: its phosphorylation enrichment
0.646

Can you look up the measured phosphorylation enrichment of SIKDKYLTALY [KCNH2_Y611_V612L] for me?
0.546

Consider the sequence shown here: VHNLDYYKMTT [FGFR3_Y647_K650M] What is its recorded phosphorylation enrichment?
8.96

Look at this sequence and give its reported phosphorylation enrichment. KKHIPYKEHKS [CSNK1G1_Y205_R206K]
2.2

Name the recorded phosphorylation enrichment for LAEMNYVHQDL [EPHB1_Y740_R743Q] .
1.01

Requested read-out: phosphorylation enrichment. Entry: STLEVYRCHPP [IL21R_Y317_S318R]
0.901

Need phosphorylation enrichment of GTHCHYKAPIV [FZD9_Y569_T573I] , thanks.
0.636

Would you kindly share the measured phosphorylation enrichment for TRFDEYLEVTK [MAP1A_Y2217_H2214Y_YF] ?
0.823

---

molecular target: FGFR3 (UniProt P22607); test: phosphorylation enrichment, bacterial display (enrichment ratio); higher = better substrate or ligand; peptides without Tyr show the background
endpoint: phosphorylation enrichment
Give the value as a plain number.

Study these solved cases before continuing.
> print(dat)
                           residues  data.value
1        EVLKNYNQQKD [GOLGA4_Y1551]       0.702
2       EVEPRYVVLFD [ERCC4_Y577_YF]       0.973
3    NGEDLYAGSTD [XRCC1_Y515_P514L]       0.613
4    EKKDIYKAGEQ [CFH_Y1008_V1007I]       0.364
5  SSYDTYHLSRE [KIR3DL2_Y253_I252T]       0.569

// lookup phosphorylation enrichment for LMVFEYMRHGN [NTRK1_Y591_D596N]
0.707

---

biological target: MERTK (UniProt Q12866); assay: phosphorylation enrichment, bacterial display (enrichment ratio); higher = better substrate or ligand; peptides without Tyr show the background
Sequence (Q12866 whole entry, looked up): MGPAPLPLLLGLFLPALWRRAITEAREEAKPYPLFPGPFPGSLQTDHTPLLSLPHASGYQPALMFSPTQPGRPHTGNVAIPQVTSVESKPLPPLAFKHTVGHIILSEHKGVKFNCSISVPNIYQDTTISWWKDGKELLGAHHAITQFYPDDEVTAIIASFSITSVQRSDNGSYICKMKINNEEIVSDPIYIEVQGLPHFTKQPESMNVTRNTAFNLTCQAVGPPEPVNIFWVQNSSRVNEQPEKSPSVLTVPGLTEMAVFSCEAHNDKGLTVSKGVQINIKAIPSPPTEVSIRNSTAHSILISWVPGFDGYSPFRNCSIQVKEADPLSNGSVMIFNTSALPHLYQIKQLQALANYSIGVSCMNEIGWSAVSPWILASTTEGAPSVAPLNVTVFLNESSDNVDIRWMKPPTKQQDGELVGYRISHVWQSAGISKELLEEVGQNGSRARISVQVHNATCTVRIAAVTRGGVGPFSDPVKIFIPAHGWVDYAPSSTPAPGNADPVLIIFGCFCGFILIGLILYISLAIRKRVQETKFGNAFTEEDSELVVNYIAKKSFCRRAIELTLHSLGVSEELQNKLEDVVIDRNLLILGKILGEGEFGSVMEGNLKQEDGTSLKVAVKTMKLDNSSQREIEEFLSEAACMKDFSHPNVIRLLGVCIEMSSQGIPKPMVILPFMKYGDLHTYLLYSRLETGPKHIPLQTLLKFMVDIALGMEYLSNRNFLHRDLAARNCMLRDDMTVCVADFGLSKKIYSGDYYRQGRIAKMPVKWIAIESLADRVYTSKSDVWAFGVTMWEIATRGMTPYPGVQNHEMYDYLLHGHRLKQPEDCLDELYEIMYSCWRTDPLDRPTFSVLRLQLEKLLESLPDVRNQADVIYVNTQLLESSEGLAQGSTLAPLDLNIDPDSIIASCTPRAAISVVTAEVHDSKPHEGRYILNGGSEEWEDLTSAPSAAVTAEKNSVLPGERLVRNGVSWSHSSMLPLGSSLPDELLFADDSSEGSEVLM
endpoint: phosphorylation enrichment
Write the value as a bare number.

The following sequences have reported results that may help.
> print(dat)
                          residues                    endpoint  data.value
1    KRLWDYGMSSS [F8_Y1728_E1723K]  phosphorylation enrichment       0.359
2    TTKAKYKTPIY [PLD2_Y573_T577I]  phosphorylation enrichment       0.574
3    EFISESCGEII [EZH2_Y641_Y641S]  phosphorylation enrichment       0.419
4         KPEKTYGLRKE [CEP43_Y267]  phosphorylation enrichment       0.441
5        ARSMEYLAEQK [MST1R_Y1198]  phosphorylation enrichment       0.548
6     RLQEDYDHSYY [ESD_Y258_G257D]  phosphorylation enrichment       0.754
7  QWRTKYEMDAI [MYH7_Y1375_T1377M]  phosphorylation enrichment       0.384
8         ENFSEYQEIAV [HEMGN_Y150]  phosphorylation enrichment       0.507

For WIPIQYLIISE [NOG_Y222_P223L] , what is its reported phosphorylation enrichment?
0.436

Using the record for TCFDKYTGSTY [FN1_Y101_N104S] , report its phosphorylation enrichment.
0.399

Please report the recorded phosphorylation enrichment for VEKGSYSALLA [ABCC2_Y845] .
0.71

What value of phosphorylation enrichment has been reported for the following sequence? THEVRYISAGQ [SLCO4A1_Y77_V78I]
0.408

Bench note: what phosphorylation enrichment did NKEPRYQEDPP [TJP2_Y479] show?
0.508

// returns reported phosphorylation enrichment for input STTIHYNYMCN [TP53_Y234_C229S]
0.53

---

molecular target: c-Src SH2; test: SH2 binding enrichment of the phosphorylated peptide, bacterial display (enrichment ratio); higher = better substrate or ligand; peptides without Tyr show the background
Entries and their SH2 binding enrichment
API doc: respond with a numeric literal and nothing else, no unit.

Below are worked cases with known answers.
> print(dat)
                            residues                endpoint  data.value
1  HFGCVYFGTLL [MET_Y1093_H1094Y_YF]  SH2 binding enrichment       0.535
2   KKHIPYKEHKS [CSNK1G1_Y205_R206K]  SH2 binding enrichment        1.82
3  LRWREYQRQDF [PRKRIP1_Y90_R87W_YF]  SH2 binding enrichment        1.34
4          LLKAKYELLNA [POLR3A_Y714]  SH2 binding enrichment        1.95
5     AAGGRYYGLVG [HARS1_Y363_D364Y]  SH2 binding enrichment        1.79

Lookup: SH2 binding enrichment / c-Src SH2 / DLFRLYVCVKE [ARID1B_Y1091]
0.35

SH2 binding enrichment of LHQSTYQCYDV [SLC7A14_Y693_R695C] on c-Src SH2?
0.536

Item RNPLRYTSILT [OR51B6_Y130_S126N] with c-Src SH2 - SH2 binding enrichment?
3.12

Please provide the recorded SH2 binding enrichment for QGCGIYKDYYR [PLA2G2D_Y82_S80G] , tested on c-Src SH2.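 Also: peptide library displayed on the E. coli surface as eCPX fusions, selected cells deep-sequenced, score is each peptide's frequency after selection divided by its frequency in the input.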
0.497
